Value source: PubChem BioAssay AID1159580

- ASSAY_PROTOCOL: chemical genetic growth profiling, strain panel (AID 1159580);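 also: tested at 20 µM; growth read once vehicle control cultures reached saturation at 30 °C; 1 = growth at the plate median or of vehicle wells; lower values mean less growth of the strain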
- EXPERIMENTAL_PARAMETERS: S. cerevisiae deletion strains, growth OD, locus YDL035C, strain GPR1
The campaign covered roughly 5,500 compounds. About 2,000 (36%) were called active. Roughly 18% stayed inconclusive and do not appear here. Rule as the data show it: active = normalized growth mostly below about 0.91 (no sharp cut-off); inconclusive = no clear call, values can overlap the other calls; inactive = mostly above about 0.92. This is one part of the list. *1 amine or outer side, *2 acyl side, *3 side chain or, on linkers, in order; H or OH if unused. Where a SMILES comes first, the peptide text is derived from it. Bridges are numbered along the chain shown (N, C = ends). [ ]: non-standard residue; d: D form. The star is where a group is joined. ξ: configuration not given here. ΔAla(E,3-NHCONH2) = NC(=O)N/C=C(/N)C(=O)O; X2 = NC1=NCCC(C(N[*:1])C(=O)[*:2])N1; ξβ3hOrn = NCCCC(N)CC(=O)*; Dap = NC[CH](N)C(=O)O
Can you answer with just one of these options? 1.0 for active, 0.0 for inactive

Identify the outcome logged in this assay for the compound shown: "COC(=O)[C@]1(C)CC[C@]2(C)CC[C@]3(C)C4=CC=C5C(=CC(=O)C(O)=C5C)[C@]4(C)CC[C@@]3(C)[C@@H]2C1" 1.0

Identify the outcome logged in this assay for the compound shown: NCCCC(N)CC(=O)NCC1NC(=O)C(CO)NC(=O)C(N)CNC(=O)C(C2CCN=C(N)N2)NC(=O)/C(=C\NC(N)=O)NC1=O (stereo not drawn) (H-[Dap]S[Dap](ξβ3hOrn)[ΔAla(E,3-NHCONH2)][X2]; lactam 1-C; configuration not given here) 0.0

Identify the outcome logged in this assay for the compound shown: CC1=CC(=O)C2=C(C)CC(O)C3C(C)C(=O)OC3C12 (centres undefined) 0.0

Identify the outcome logged in this assay for the compound shown: CC(=O)Oc1cc2c(c(C)c1OC(C)=O)CC1OC13C2(C)CCC1(C)C2CC(C)(C(=O)O)CCC2(C)CCC13C (centres undefined) 0.0

Identify the outcome logged in this assay for the compound shown: CC(=O)[C@@]1(O)CCC2C3CCC4=CC(=O)CC[C@]4(C)C3CC[C@@]21C (some centres undefined) 0.0

Identify the outcome logged in this assay for the compound shown: "Cc1onc(-c2ccccc2Cl)c1C(=O)N[C@@H]1C(=O)N2[C@@H]1SC(C)(C)[C@@H]2C(=O)O" 0.0

Identify the outcome logged in this assay for the compound shown: "Cc1cc(=O)n(-c2ccccc2)n1C" 0.0

Identify the outcome logged in this assay for the compound shown: "CC(=O)NO" 0.0

Identify the outcome logged in this assay for the compound shown: "CCOc1cccc(C(=O)c2ccc(O)c(O)c2O)c1" 1.0

Identify the outcome logged in this assay for the compound shown: COC(=O)C[C@H]1C(C)(C)[C@@H](O)[C@@H]2CC3=C4C=C(OC)O[C@@H](c5ccoc5)[C@]4(C)CCC3[C@@]1(C)C2=O (some centres undefined) 0.0

Identify the outcome logged in this assay for the compound shown: "COc1ccc2c(c1OC)OC[C@@H](c1ccc(OC)c(OC)c1OC)C2" 0.0

Identify the outcome logged in this assay for the compound shown: "CC[C@@H](CO)NC(=O)[C@@H]1C=C2c3cccc4[nH]cc(c34)C[C@H]2N(C)C1" 0.0

Identify the outcome logged in this assay for the compound shown: C=C(C)[C@@H]1CC[C@]2(CO)CC[C@]3(C)[C@H](CCC4[C@@]5(C)CC[C@H](O)C(C)(C)C5CC[C@]43C)C12 (some centres undefined) 0.0

Identify the outcome logged in this assay for the compound shown: COc1cc2c(cc1OC)[C@@]13CCN4CC5=CCOC6CC(=O)N2C1[C@H]6[C@H]5C[C@H]43 (some centres undefined) 0.0

Identify the outcome logged in this assay for the compound shown: CC(=O)OCC(=O)[C@@]1(O)CCC2C3CC[C@@H]4C[C@H](OC(C)=O)CC[C@]4(C)C3C(=O)C[C@@]21C (some centres undefined) 0.0

Identify the outcome logged in this assay for the compound shown: "COc1cc(/C=C/C=O)cc(OC)c1OC" 0.0

Identify the outcome logged in this assay for the compound shown: COc1cc2c(cc1O)CCNC2C (centres undefined) 0.0

Identify the outcome logged in this assay for the compound shown: "O=c1oc2c(O)c(O)cc3c(=O)oc4c(O)c(O)cc1c4c23" 1.0

Identify the outcome logged in this assay for the compound shown: O=c1[nH]cnc2c1ncn2C1O[C@H](CO)[C@@H](O)[C@H]1O (some centres undefined) 0.0

Identify the outcome logged in this assay for the compound shown: CC(=O)O[C@@H]1CC[C@]2(C)C3CC[C@]4(C)C(=O)CCC4C3CC[C@H]2C1 (some centres undefined) 1.0

Identify the outcome logged in this assay for the compound shown: CC(=O)OCC(=O)[C@@]12OC3(CCCC3)O[C@@H]1CC1C3CCC4=CC(=O)C=C[C@]4(C)[C@@]3(F)[C@@H](O)C[C@@]12C (some centres undefined) 0.0

Identify the outcome logged in this assay for the compound shown: "COc1cccc(O)c1O" 0.0

Identify the outcome logged in this assay for the compound shown: "CC1=NN(c2ccccc2)C(=O)C1" 0.0

Identify the outcome logged in this assay for the compound shown: CC(=O)OCC(=O)[C@@]1(O)CCC2C3CCC4=CC(=O)CC[C@]4(C)C3[C@@H](O)C[C@@]21C (some centres undefined) 0.0

###

- ASSAY_PROTOCOL: chemical genetic growth profiling, strain panel (AID 1159580);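 also: tested at 20 µM; growth read once vehicle control cultures reached saturation at 30 °C; 1 = growth at the plate median or of vehicle wells; lower values mean less growth of the strain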
- EXPERIMENTAL_PARAMETERS: S. cerevisiae deletion strains, growth OD, locus YLR039C, strain RIC1
Screen size: about 5,500 compounds; about 2,000 (36%) were called active. Another 18% or so got no clear call; they are omitted. Rule as the data show it: active = normalized growth mostly below about 0.91 (no sharp cut-off); inconclusive = no clear call, values can overlap the other calls; inactive = mostly above about 0.92. This is one part of the list. *1 amine or outer side, *2 acyl side, *3 side chain or, on linkers, in order; H or OH if unused. Where a SMILES comes first, the peptide text is derived from it. Bridges are numbered along the chain shown (N, C = ends). [ ]: non-standard residue; d: D form. The star is where a group is joined. ξ: configuration not given here. ΔAla(E,3-NHCONH2) = NC(=O)N/C=C(/N)C(=O)O; X2 = NC1=NCCC(C(N[*:1])C(=O)[*:2])N1; ξβ3hOrn = NCCCC(N)CC(=O)*; Dap = NC[CH](N)C(=O)O
Can you answer with just one of these options? active, inactive

Identify the outcome logged in this assay for the compound shown: C[C@]12CCC(=O)C=C1CCC1C2C(=O)C[C@@]2(C)C1CC[C@]2(O)C(=O)CO (some centres not stated) inactive

Identify the outcome logged in this assay for the compound shown: NC[C@H]1O[C@H](O[C@H]2C(O[C@@H]3O[C@H](CO)[C@@H](O)[C@H]3O)[C@@H](O)[C@H](N)C[C@@H]2N)[C@H](N)[C@@H](O)[C@@H]1O (some centres not stated) inactive

Identify the outcome logged in this assay for the compound shown: "C=CCn1c(COc2c(Br)cc(C)c3c2CCC3)n[nH]c1=S" active

Identify the outcome logged in this assay for the compound shown: Cc1cc(C)cc(N2C(=O)CC(Sc3ccccc3C(=O)O)C2=O)c1 (configuration not stated) active

Identify the outcome logged in this assay for the compound shown: "Cc1ccc(OCc2nnc(SCC(=O)c3ccc(F)cc3)n2-c2ccccc2)c2c1CCC2" inactive

Identify the outcome logged in this assay for the compound shown: "O=[N+]([O-])c1ccc(-c2nn[nH]n2)cc1" inactive

Identify the outcome logged in this assay for the compound shown: CC(=O)Oc1cc2c(c(C)c1OC(C)=O)CC1OC13C2(C)CCC1(C)C2CC(C)(C(=O)O)CCC2(C)CCC13C (configuration not stated) inactive

Identify the outcome logged in this assay for the compound shown: CNS(=O)(=O)c1cc(Br)ccc1S(=O)c1ccccc1C(=O)O (configuration not stated) inactive

Identify the outcome logged in this assay for the compound shown: "C=C(C)[C@H]1Cc2c(ccc3c2O[C@@H]2COc4cc(OC)c(OC)cc4[C@@H]2C3=O)O1" inactive

Identify the outcome logged in this assay for the compound shown: "NC[C@H]1O[C@H](O[C@H]2[C@H](O)[C@@H](O[C@H]3O[C@H](CO)[C@@H](O)[C@H](N)[C@H]3O)[C@H](N)C[C@@H]2N)[C@H](N)C[C@@H]1O" inactive

Identify the outcome logged in this assay for the compound shown: "O=C(Nc1cccnc1)c1cccc(Cl)c1Cl" inactive

Identify the outcome logged in this assay for the compound shown: C[C@]12CCC(=O)C=C1CCC1C2[C@@H](O)C[C@@]2(C)C1CC[C@]2(O)C(=O)COC(=O)CCC(=O)O (some centres not stated) inactive

Identify the outcome logged in this assay for the compound shown: "CSc1nc(N)nc(N2CCCCC2)n1" inactive

Identify the outcome logged in this assay for the compound shown: CO[C@H]1C[C@H](O[C@H]2[C@H](C)[C@@H](OC3O[C@H](C)C[C@H](N(C)C)[C@H]3OC(C)=O)[C@@H](C)C[C@]3(CO3)C(=O)[C@H](C)[C@@H](OC(C)=O)[C@@H](C)[C@@H](C)OC(=O)[C@@H]2C)O[C@@H](C)[C@@H]1OC(C)=O (some centres not stated) inactive

Identify the outcome logged in this assay for the compound shown: "CO[C@@]1(NC(=O)Cc2cccs2)C(=O)N2C(C(=O)O)=C(COC(N)=O)CS[C@@H]21" inactive

Identify the outcome logged in this assay for the compound shown: CC(=O)OCC(=O)[C@@]1(O)CCC2C3CCC4=CC(=O)CC[C@]4(C)C3[C@@H](O)C[C@@]21C (some centres not stated) inactive

Identify the outcome logged in this assay for the compound shown: "NCCc1c[nH]c2ccccc12" inactive

Identify the outcome logged in this assay for the compound shown: "c1cc(C2CCCCC2)ccc1C1CCCCC1" inactive

Identify the outcome logged in this assay for the compound shown: "N#Cc1sccc1Br" inactive

Identify the outcome logged in this assay for the compound shown: "COc1cnc(NS(=O)(=O)c2ccc(N)cc2)nc1" inactive

Identify the outcome logged in this assay for the compound shown: NCCCC(N)CC(=O)NCC1NC(=O)C(CO)NC(=O)C(N)CNC(=O)C(C2CCN=C(N)N2)NC(=O)/C(=C\NC(N)=O)NC1=O (stereo not drawn) (H-[Dap]S[Dap](ξβ3hOrn)[ΔAla(E,3-NHCONH2)][X2]; lactam 1-C; configuration not given here) inactive

Identify the outcome logged in this assay for the compound shown: "CC(=O)N[C@@H](Cc1c[nH]c2ccccc12)C(=O)O" inactive

Identify the outcome logged in this assay for the compound shown: "CCCCc1nc(Cl)c(CO)n1Cc1ccc(-c2ccccc2-c2nn[nH]n2)cc1" inactive

Identify the outcome logged in this assay for the compound shown: "CCOC([O-])=Nc1c[n+](N2CCOCC2)no1" inactive

Identify the outcome logged in this assay for the compound shown: "CCCc1nc2c(C)cc(-c3nc4ccccc4n3C)cc2n1Cc1ccc(-c2ccccc2C(=O)O)cc1" inactive

Identify the outcome logged in this assay for the compound shown: COc1cc2c(cc1O)CCNC2C (configuration not stated) inactive

Identify the outcome logged in this assay for the compound shown: "Cc1ccc(N=Cc2cccs2)cc1Cl" inactive

Identify the outcome logged in this assay for the compound shown: "O=c1c(O)c(-c2ccc(O)c(O)c2)oc2cc(O)ccc12" inactive

Identify the outcome logged in this assay for the compound shown: C#C[C@]1(O)CCC2C3CCC4=Cc5oncc5C[C@]4(C)C3CC[C@@]21C (some centres not stated) active

Identify the outcome logged in this assay for the compound shown: "O=C(O)c1cc([N+](=O)[O-])ccc1NCCCc1ccccc1" inactive

Identify the outcome logged in this assay for the compound shown: "CN(C)CCc1c[nH]c2ccc(CS(=O)(=O)N3CCCC3)cc12" inactive

Identify the outcome logged in this assay for the compound shown: "CC[C@H]1OC(=O)[C@H](C)[C@@H](O[C@H]2C[C@@](C)(OC)[C@@H](O)[C@H](C)O2)[C@H](C)[C@@H](O[C@@H]2O[C@H](C)C[C@H](N(C)C)[C@H]2O)[C@](C)(O)C[C@@H](C)[C@@H]2N[C@@H](COCCOC)O[C@H]([C@H]2C)[C@]1(C)O" inactive
